Test system: U-251
Test: NCI tumour cell line growth inhibition, 48 h
The source made the active and inactive calls. Rule as the data show it: active = GI50 up to about 1.1 µM and inactive = higher.
endpointName: GI50

// O=C(O)COCC(=O)N(CCOCCN(Cc1ccccc1)C(=O)COCC(=O)O)Cc1ccccc1 : GI50 value = > 100 µM (inactive)

// COC(=O)C1=NN2c3ccccc3C(=O)OCCC2(C)C1 (stereo unspecified) : GI50 value = > 100 µM (inactive)

// CCOC(=O)/C=C/[C@H](O[Si](c1ccccc1)(c1ccccc1)c1ccccc1)C(C)(C)C : GI50 value = > 31.6 µM (inactive)

// CC1=C(C(=O)Nc2ccccc2)C(c2ccccc2)C(C(=O)Nc2ccccc2)=C(C)N1 : GI50 value = 48.1 µM (inactive)

// NC(=O)/N=C(\N)NC(=O)c1ccccc1 : GI50 value = > 100 µM (inactive)

// COc1cc2[nH]c(=O)[nH]c2c2c(C)c[nH]c12 : GI50 value = > 100 µM (inactive)

// [O-][n+]1c(-c2ccccc2)oc2ccccc21 : GI50 value = 18.9 µM (inactive)

// C=C1C(=O)OC2/C=C(\CO)C3OC3C3OC3(C)CC(OC(=O)/C(=C/C)CO)C12 (stereo unspecified) : GI50 value = 55.2 µM (inactive)

// CCCCCCCCCCCCSC(=S)c1c(C)[nH]n(-c2ccccc2)c1=O : GI50 value = 2.85 µM (inactive)

// N#CCCN(CCC#N)c1ccc(/C=C(/NC(=O)Nc2ccccc2Cl)NC(=O)c2cc([N+](=O)[O-])ccc2Cl)cc1 : GI50 value = > 100 µM (inactive)

// COc1ccc(-c2c(N)[n+]([O-])c3cc(C)c(C)cc3[n+]2[O-])cc1OC : GI50 value = 67.3 µM (inactive)

// Cc1ccc(S(=O)(=O)NC(=O)NC(C(=O)O)C(C)C)cc1 (stereo unspecified) : GI50 value = > 100 µM (inactive)

// CN(C)CCNC(=O)c1cccc2c(=O)c3ccccc3oc12 : GI50 value = 44.4 µM (inactive)

// O=C1C2CC=CCC2C(=O)C12CCc1ccccc12 (stereo unspecified) : GI50 value = > 100 µM (inactive)

// O=c1c2cc(Br)ccc2[nH]c(=S)n1-c1ccccc1 : GI50 value = > 100 µM (inactive)

// CC(C)c1c(O)c(O)c2c(c1O)C(=O)C(O)=C1C(C)(C)CCC[C@@]12C : GI50 value = 2.77 µM (inactive)

// COC(=O)[C@@H]1C=C[C@@H](C#N)n2c(=O)n(-c3ccccc3)c(=O)n21 : GI50 value = 33.8 µM (inactive)

// CS(=O)(=O)OCC1CCCCCCCCCCC12SCCCS2 (stereo unspecified) : GI50 value = > 100 µM (inactive)

// Cc1cc(C2(O)C=C(C(C)(C)C)C(=O)C(C(C)(C)C)=C2)c(C)cc1C1(O)C=C(C(C)(C)C)C(=O)C(C(C)(C)C)=C1 : GI50 value = > 100 µM (inactive)

// O=C(NCCCNCCCCNCCCNC(=O)c1cc(-c2ccccc2)nc2ccccc12)c1cc(-c2ccccc2)nc2ccccc12 : GI50 value = 1.66 µM (inactive)

// COC(=O)/C(C#N)=C1\NC(=O)c2ccccc21 : GI50 value = > 100 µM (inactive)

// CC(C)c1nc2c(Cl)c3ncccc3cc2[nH]c1=O : GI50 value = 73.3 µM (inactive)

// Cn1cnc([N+](=O)[O-])c1Sc1n[nH]c(-c2ccc(Cl)cc2)n1 : GI50 value = 19.5 µM (inactive)

// O=C(O)CCNS(=O)(=O)c1ccc(NC(=O)c2ccccc2)cc1 : GI50 value = > 100 µM (inactive)

// O=C(O)COc1ccc(C(=O)/C(SS/C(C(=O)c2ccc(OCC(=O)O)c(Cl)c2Cl)=C2\C=C(c3ccc(F)cc3)SS2)=C2/C=C(c3ccc(F)cc3)SS2)c(Cl)c1Cl : GI50 value = 5.75 µM (inactive)

// CCc1c(C)[nH]c2c1/C(=N/N=C1\CCCc3[nH]c(C)c(CC)c31)CCC2 : GI50 value = 17 µM (inactive)

// Cn1ncc2c(Nc3ccc(Cl)cc3)c3ccccc3nc21 : GI50 value = 15.6 µM (inactive)

// COc1ccc2nc3c([N+](=O)[O-])ccc(NCCCN(C)C)c3c(N)c2c1 : GI50 value = 1.57 µM (inactive)

// CN(CCO)/N=N/c1[nH]cnc1C(N)=O : GI50 value = > 100 µM (inactive)

// COc1cc(C[P+](c2ccccc2)(c2ccccc2)c2ccccc2)cc(OC)c1OC : GI50 value = > 100 µM (inactive)

// C[s+]1c2ccccc2c2ccccc21 : GI50 value = > 100 µM (inactive)
